Parameter: pIC50. Scope: all listed entries.
ASSAY_TEXT: Cytotoxicity against human A549/TxR cells assessed as reduction in cell viability measured after 24 hrs by MTT assay
Format: functional, cell-based
Here pIC50 is given on a logarithmic scale as minus log10 of the concentration in mol/L.

Asked: Need pIC50, item `COC(=O)c1cc2c(cc1Nc1cc(OC)c(OC)c(OC)c1)OCCO2`
Given back: 6.51

Asked: Same again, this time with CC(=O)O[C@H]1C(=O)[C@@]2(C)[C@H]([C@H](OC(=O)c3ccccc3)[C@]3(O)C[C@H](OC(=O)[C@H](O)[C@@H](NC(=O)c4ccccc4)c4ccccc4)C(C)=C1C3(C)C)[C@]1(OC(C)=O)CO[C@@H]1C[C@@H]2O [PACLITAXEL]
Given back: 5.53

Asked: Same again, this time with COc1ccc(/C=C\c2cc(OC)c(OC)c(OC)c2)cc1O [COMBRETASTATIN A4]
Given back: 7.02

***
Asked: Need pIC50, item COc1cc([C@@H]2c3cc4c(cc3[C@H](O)[C@H]3COC(=O)[C@H]23)OCO4)cc(OC)c1OC [PODOFILOX]
Given back: 7.14
